assay info: RP-HPLC retention time as measure of β-peptide hydrophobicity
Type: physicochemical
condition label: chromatographic, analytical RP-HPLC, C18 (Waters X-bridge, 4.6 mm × 250 mm), gradient 20%–80% CH3CN in water with 0.1% TFA over 5–35 min, 1 mL/minute, 0.5 to 1 mg/mL, 50 µL injected; mean ± standard deviation of triplicate measurements
property label: Hydrophobicity (HPLC Retention Time, min)
Use min as the unit, but write only the number.

Input: Which Hydrophobicity (HPLC Retention Time, min) reading was recorded for the compound NCCCC[C@@H](CC(N)=O)NC(=O)C[C@H](Cc1ccccc1)NC(=O)[C@H]1CCCC[C@@H]1NC(=O)C[C@H](CCCCN)NC(=O)C[C@H](Cc1ccccc1)NC(=O)[C@H]1CCCC[C@@H]1NC(=O)C[C@H](CCCCN)NC(=O)C[C@H](Cc1ccccc1)NC(=O)[C@H]1CCCC[C@@H]1N [Peptide 8] ?
Output: 26.2

Input: Same again, this time with CC[C@@H](CC(=O)N[C@@H](CCCCN)CC(=O)N[C@H]1CCCC[C@@H]1C(=O)N[C@@H](CC)CC(=O)N[C@@H](CCCCN)CC(=O)N[C@H]1CCCC[C@@H]1C(=O)N[C@@H](CC)CC(=O)N[C@@H](CCCCN)CC(N)=O)NC(=O)[C@H]1CCCC[C@@H]1NC(=O)C[C@@H](N)Cc1ccc(O)cc1 [Peptide 10]
Output: 23.5

Input: Same again, this time with CC(C)[C@@H](CC(=O)N[C@@H](CCCCN)CC(=O)N[C@H]1CCCC[C@@H]1C(=O)N[C@H](CC(=O)N[C@@H](CCCCN)CC(=O)N[C@H]1CCCC[C@@H]1C(=O)N[C@H](CC(=O)N[C@@H](CCCCN)CC(N)=O)C(C)C)C(C)C)NC(=O)[C@H]1CCCC[C@@H]1NC(=O)C[C@@H](N)Cc1ccc(O)cc1 [Peptide 12]
Output: 25.7

* * *

assay info: RP-HPLC retention time as measure of β-peptide hydrophobicity
Assay type: physicochemical
condition label: chromatographic, analytical RP-HPLC, C18 (Waters X-bridge, 4.6 mm × 250 mm), gradient 20%–80% CH3CN in water with 0.1% TFA over 5–35 min, 1 mL/minute, 0.5 to 1 mg/mL, 50 µL injected; mean ± standard deviation of triplicate measurements
property label: Hydrophobicity (HPLC Retention Time, min)
Use min as the unit, but write only the number.

Input: Which Hydrophobicity (HPLC Retention Time, min) reading was recorded for the molecule CC(C)[C@@H](CC(=O)N[C@@H](CCCNC(=N)N)CC(=O)N[C@H]1CCCC[C@@H]1C(=O)N[C@H](CC(=O)N[C@@H](CCCNC(=N)N)CC(=O)N[C@H]1CCCC[C@@H]1C(=O)N[C@H](CC(=O)N[C@@H](CCCNC(=N)N)CC(N)=O)C(C)C)C(C)C)NC(=O)[C@H]1CCCC[C@@H]1NC(=O)C[C@@H](N)Cc1ccc(O)cc1 [Peptide 13] ?
Output: 26.5

Input: Same again, this time with CC(C)[C@@H](CC(=O)N[C@@H](CCCCN)CC(N)=O)NC(=O)[C@H]1CCCC[C@@H]1NC(=O)C[C@H](CCCCN)NC(=O)C[C@@H](NC(=O)[C@H]1CCCC[C@@H]1NC(=O)C[C@H](CCCCN)NC(=O)C[C@@H](NC(=O)[C@H]1CCCC[C@@H]1N)C(C)C)C(C)C [Peptide 4]
Output: 24.5

Input: Same again, this time with CC[C@@H](CC(=O)N[C@@H](CCCCN)CC(N)=O)NC(=O)[C@H]1CCCC[C@@H]1NC(=O)C[C@H](CCCCN)NC(=O)C[C@H](CC)NC(=O)[C@H]1CCCC[C@@H]1NC(=O)C[C@H](CCCCN)NC(=O)C[C@H](CC)NC(=O)[C@H]1CCCC[C@@H]1N [Peptide 2]
Output: 22.5
